Recorded values, source ChEMBL document CHEMBL4130528.

# System: MDA-MB-231
# method-summary: Cytotoxicity against human MDA-MB-231 cells assessed as reduction in cell viability by cell titer 96 aqueous one solution based assay
# Type: functional
Define the label as yes when IC50 is strictly less than 8 µM and as no in all remaining cases.

Could you please tell me whether IC50 recorded for CCCCCCCCOc1ccc2[nH]cc(CCN)c2c1 is less than 8 µM?
yes

Given the entry NCCc1c[nH]c2ccc(OCc3ccc(COc4ccc5[nH]cc(CCN)c5c4)cc3)cc12 , would its reported IC50 be below 8 µM?
no

Record NCCc1c[nH]c2ccc(OCc3cccc(COc4ccc5[nH]cc(CCN)c5c4)c3)cc12 : is its IC50 strictly below 8 µM?
no
